# test.details: Hepatocytes stability assay (human hepatocytes)
# Format: in vitro ADME
# experimental.setup: both sexes, cryopreserved hepatocytes, 1 μM test compound, 1×10^6 cell/mL, read-out: CLint (μL/min/million cells)
measurement.kind: hepatocyte CLint at 1 μM (µL/min/1e6 cells)

Prompt: Recorded hepatocyte CLint at 1 μM of CS(=O)(=O)N[C@H]1CCN(c2ccccn2)CC1COC1CCC(c2ccccn2)CC1 (stereo partly drawn) , please.
Completion: 53

Prompt: Quick check: hepatocyte CLint at 1 μM of CS(=O)(=O)N[C@H]1CCN(c2ccncn2)CC1COC1CCC(c2ccccc2)CC1 (stereo partly drawn) ?
Completion: 60

Prompt: Which hepatocyte CLint at 1 μM is listed for Cc1cccc(C2CCC(OCC3CN(c4ccccn4)CC[C@@H]3NS(C)(=O)=O)CC2)c1 (stereo partly drawn) ?
Completion: 43

Prompt: Quick one: hepatocyte CLint at 1 μM of CS(=O)(=O)N[C@H]1CCN(c2ccccn2)CC1COC1CCC(c2cccnc2)CC1 (stereo partly drawn) ?
Completion: 50

Prompt: What value of hepatocyte CLint at 1 μM has been reported for the following molecule? CS(=O)(=O)N[C@H]1CCN(c2ccccn2)CC1COC1CCC(c2ccc(F)cc2)CC1 (stereo partly drawn)
Completion: 39

Prompt: I have this molecule here, CS(=O)(=O)N[C@H]1CCN(c2ccc(F)cn2)CC1COC1CCC(c2ccccc2)CC1 (stereo partly drawn) , and I need its recorded hepatocyte CLint at 1 μM.
Completion: 42

Prompt: Can you share its hepatocyte CLint at 1 μM? I mean this molecule: CS(=O)(=O)N[C@H]1CCN(c2ccccn2)CC1COC1CCC(c2ccncc2)CC1 (stereo partly drawn)
Completion: 57

Prompt: Reported hepatocyte CLint at 1 μM for CS(=O)(=O)N[C@H]1CCN(c2ncccc2F)CC1COC1CCC(c2ccccc2)CC1 (stereo partly drawn) : what is it?
Completion: 55

P = CS(=O)(=O)N[C@H]1CCN(c2ccccn2)C[C@H]1CO[C@H]1CC[C@@H](c2cccc(F)c2)CC1
Q = CS(=O)(=O)N[C@H]1CCN(c2ccccn2)CC1COC1CCC(c2ccncn2)CC1 (stereo partly drawn)
Prompt: Would you mind telling me which has the lower recorded hepatocyte CLint at 1 μM between P and Q ? Write the label of whichever entry you select.
Completion: Q

---

# Test system: MDR1
# test.details: MDCK-MDR1 permeability assay
# Format: in vitro ADME
# experimental.setup: dog, apical to basolateral, 3 μM test compound, 2 hours at 37 degrees C
measurement.kind: Papp A→B at 2 h, 3 μM (×10⁻⁶ cm/s)

Worked set:
Prompt: Query: Papp A→B at 2 h, 3 μM; subject: CS(=O)(=O)N[C@H]1CCN(c2ncccc2O)CC1COC1CCC(c2ccccc2)CC1 (stereo partly drawn)
Completion: 2.7

Prompt: Entry C[C@@H](c1ccccc1)N1CC[C@H](NS(C)(=O)=O)C(COC2CCC(c3ccccc3)CC2)C1 (stereo partly drawn) has what Papp A→B at 2 h, 3 μM?
Completion: 0.38

Prompt: Consider the compound CS(=O)(=O)N[C@H]1CCN(c2cnccn2)CC1COC1CCC(c2ccccc2)CC1 (stereo partly drawn) and give its measured Papp A→B at 2 h, 3 μM.
Completion: 0.69

1 = CS(=O)(=O)N[C@H]1CCN(c2ccccn2)CC1COC1CCC(c2cccc(O)c2)CC1 (stereo partly drawn)
2 = CS(=O)(=O)N[C@H]1CCN(c2ccccn2)CC1COC1CCC(c2ccccc2)CC1 (stereo partly drawn)
Prompt: For the two items 1 and 2 , which reports the higher Papp A→B at 2 h, 3 μM value? In your reply, give the label of the chosen option.
Completion: 2
(2: 5.6 ×10⁻⁶ cm/s, 1: 1 ×10⁻⁶ cm/s)

P = CS(=O)(=O)N[C@H]1CCN(c2ccccn2)C[C@H]1CO[C@H]1CC[C@@H](c2cccc(F)c2)CC1
Q = C[C@H](c1ccccc1)N1CC[C@H](NS(C)(=O)=O)C(COC2CCC(c3ccccc3)CC2)C1 (stereo partly drawn)
Prompt: Between the entries labeled P and Q , whose measured Papp A→B at 2 h, 3 μM is lower? // output: label of the selected item
Completion: Q

P = CS(=O)(=O)N[C@H]1CCN(c2ccccn2)CC1COC1CCC(c2cccc(C#N)c2)CC1 (stereo partly drawn)
Q = CS(=O)(=O)N[C@H]1CCN(c2ccccn2)CC1COC1CCC(c2cccc(C(F)(F)F)c2)CC1 (stereo partly drawn)
R = CS(=O)(=O)N[C@H]1CCN(c2ccccn2)CC1COC1CCN(c2ncccn2)CC1 (stereo partly drawn)
Prompt: Put the items in sequence by Papp A→B at 2 h, 3 μM, from largest down. Reply with the labels, ordered as the question asks.
Completion: R, P, Q

P = CS(=O)(=O)N[C@H]1CCN(c2ccccn2)CC1COC1CCC(c2cccnc2)CC1 (stereo partly drawn)
Q = CS(=O)(=O)N[C@H]1CCN(c2cccc3ccnn23)CC1COC1CCC(c2ccccc2)CC1 (stereo partly drawn)
Prompt: Which item exceeds the other in Papp A→B at 2 h, 3 μM, P or Q ? Choose, then provide that item's label.
Completion: P
